- target under test: 5HT2A receptor (Homo sapiens)
- test: cell-based
- Parameters: expressed in transfected cells; host or cells: HEK293T cells, transient co-transfection
- condition notes: 5HT2A β-Arr EC50 (nM), BRET1 beta-arrestin2 recruitment, HEK293T
Note to self: use Met only for EC50 readings below 2000 nM; a reading exactly at 2000 nM still gets Not met.

compound	qualitative label
CN1CC=C(c2n[nH]c3c(Cl)cccc23)C1 [Example 207]	Met
Fc1cccc2c(C34CCNCC3C4)n[nH]c12 (centres unmarked) [Example 229]	Not met
Cc1cccc2c(C34CNCC3C4)n[nH]c12 (centres unmarked) [Example 186]	Met
FC(F)(F)CCN1CCC=C(c2n[nH]c3c(Cl)cccc23)C1 [Example 164]	Met

###

- target under test: 5HT2A receptor (Homo sapiens, UniProt P28223)
- Sequence (P28223 whole entry): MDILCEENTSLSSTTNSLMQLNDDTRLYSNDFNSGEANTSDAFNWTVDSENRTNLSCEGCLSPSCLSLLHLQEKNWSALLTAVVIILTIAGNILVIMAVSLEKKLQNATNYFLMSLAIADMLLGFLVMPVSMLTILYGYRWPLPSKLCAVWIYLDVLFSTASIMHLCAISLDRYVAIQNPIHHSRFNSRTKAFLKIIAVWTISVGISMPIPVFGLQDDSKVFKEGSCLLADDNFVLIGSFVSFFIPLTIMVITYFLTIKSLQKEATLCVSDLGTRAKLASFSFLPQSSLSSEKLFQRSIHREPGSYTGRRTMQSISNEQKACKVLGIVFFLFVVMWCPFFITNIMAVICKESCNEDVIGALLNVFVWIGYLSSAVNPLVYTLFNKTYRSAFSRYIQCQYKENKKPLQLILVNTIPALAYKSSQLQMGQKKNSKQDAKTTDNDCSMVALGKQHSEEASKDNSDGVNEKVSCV
- test: cell-based
- Set-up: expressed in transfected cells; host or cells: HEK293T cells, transient co-transfection
- condition notes: 5HT2A Gq EC50 (nM), BRET2 Gαq dissociation, HEK293T cells

molecule	EC50 (nM)
CN1CCC=C(c2c[nH]c3nccc(F)c23)C1	253
Cc1cccc2c(C3=CCCN(Cc4ccccc4)C3)c[nH]c12	127
Clc1cccc2c(C3CCCNC3)n[nH]c12 (stereo not shown)	290
Clc1ccnc2[nH]cc(C3=CCCNC3)c12	79.9

###

- target under test: 5HT2A receptor (Homo sapiens, UniProt P28223)
- test: cell-based
- Set-up: expressed in transfected cells; host or cells: HEK293T cells, transient co-transfection
- condition notes: HEK-293T, BRET2 Gαq dissociation, HEK293T, normalized to 5-HT; read-out: 5HTA Gq Emax (%)
In this section we review reported Emax values for a set of compounds.

compound	Emax
CN1CCC=C(c2c[nH]c3nc(F)ccc23)C1	87.4%
Cc1cccc2c(C34CNCC3C4)c[nH]c12 (stereo not drawn)	89.5%
CN1CCOC(c2c[nH]c3c(Cl)cccc23)C1 (stereo not drawn)	69.6%

###

- target under test: 5HT2A receptor (Homo sapiens)
- test: biochemical
- Type: binding
- Parameters: expressed in transfected cells; crude membranes
- condition notes: secondary radioligand binding, Ki from IC50 by Cheng-Prusoff; read-out: 5HT2A Ki
pKi: −log10 of the molar value.
In this section we review reported pKi values for a set of compounds.

given smiles	pKi
Cc1ccnc2[nH]cc(C3=CCCN(C)C3)c12	7.20
Clc1cccc2c(C3=CCCNC3)n[nH]c12	7.07
Cc1cccc2[nH]cc(C3=CCCNC3)c12	7.94
Cc1cc(F)cc2c(C3=CCCN(C)C3)c[nH]c12	7.00
CN1CCC=C(c2c[nH]c3c(C(F)(F)F)cccc23)C1	7.59

###

- target under test: UniProtKB P28223
- test: cell-based
- Parameters: expressed in transfected cells; host or cells: HEK293T cells, transient co-transfection
- condition notes: HEK-293T, BRET2 Gαq dissociation, HEK293T cells, normalized to 5-HT; read-out: 5HT2A Gq Emax (%)
In this section we review reported Emax values for a set of compounds.

given smiles	Emax
CN1CCC=C(c2n[nH]c3cc(Cl)ccc23)C1	72.1%
CCc1cccc2c(C3=CCCNC3)c[nH]c12	92.6%
Cc1cccc2c(C3=CCCNC3)c[nH]c12	92.6%
COc1ccc2[nH]nc(C3=CCCN(C)C3)c2c1	88.2%
CCc1cccc2c(C3=CCCN(C)C3)c[nH]c12	89.3%

###

- target under test: 5HT2A receptor (Homo sapiens, UniProt P28223)
- test: biochemical
- Format: binding
- Design: expressed in transfected cells; crude membranes
- condition notes: 5HT2A Ki (nM), secondary radioligand binding, Ki from IC50 by Cheng-Prusoff

given smiles	Ki
COc1cccc2c(C3=CCCNC3)c[nH]c12	> 10000 nM
Fc1cccn2c(C3=CCCNC3)cnc12	> 10000 nM
CN1CCC=C(c2c[nH]c3c(C(=O)O)cccc23)C1	> 10000 nM

###

- target under test: 5HT2A receptor (Homo sapiens)
- test: biochemical
- Type: binding
- Design: expressed in transfected cells; crude membranes
- condition notes: 5HT2A Ki (nM), secondary binding assay, Cheng-Prusoff

molecule	value operator	Ki / nM
Cc1c(F)ccc2c(C34CNCC3C4)c[nH]c12 (centres unmarked) [Example 283]	=	141
CN1CCC=C(c2c[nH]c3ccncc23)C1 [Example 136]	=	1810
CCCN1CCC2CC2(c2n[nH]c3c(Cl)cccc23)C1 (centres unmarked) [Example 182]	=	2470
CN1CCC(c2n[nH]c3c(Cl)cccc23)CC1 [Example 240]	=	378
CN1CC2C=C(c3n[nH]c4c(Cl)cccc34)C1CC2 (centres unmarked) [Example 224]	=	8880
Fc1cc(Cl)c2[nH]cc(C34CNCC3C4)c2c1 (centres unmarked) [Example 279]	=	75.2
Cc1cccc2c(C3=CCN(C)CCC3)n[nH]c12 [Example 205]	=	217
Cc1ccc2[nH]cc(C3=CCCNC3)c2n1 [Example 139]	=	4180
c1cnc2[nH]cc(C34CNCCC3C4)c2c1 (centres unmarked) [Example 268]	=	5940
N#Cc1cccc2c(N3CCNCC3)n[nH]c12 [Example 231]	=	3010
CN1CCC=C(c2c[nH]c3cnccc23)C1 [Example 135]	=	3540
Fc1cccc2c(C34CNCC3C4(F)F)n[nH]c12 (centres unmarked) [Example 201]	=	4310
Cc1cccc2c(C34CC3CN(C)C4)n[nH]c12 (centres unmarked) [Example 227]	=	1450
CCCN1CCC=C(c2c[nH]c3c(F)cccc23)C1 [Example 156]	=	164
CN1CC2CC2(c2n[nH]c3c(Cl)cccc23)C1 (centres unmarked) [Example 183]	=	595
Clc1cccc2c(C34CNCC3C4)n[nH]c12 (single isomer, unassigned) [Example 274]	=	1580
CCCN1CCC=C(c2n[nH]c3c(C#N)cccc23)C1 [Example 176]	>	10000
CCCNC1CCC=C(c2n[nH]c3c(Cl)cccc23)C1 (centres unmarked) [Example 171]	>	10000
Clc1cccc2c(C34CNCCC3C4)n[nH]c12 (centres unmarked) [Example 181]	=	842
CCN1CCC=C(c2nn(CC)c3c(Cl)cccc23)C1 [Example 146]	=	171
FC(F)CN1CCC=C(c2n[nH]c3c(Cl)cccc23)C1 [Example 153]	=	634
CC(C)N1CCOC(c2c[nH]c3c(Cl)cccc23)C1 (centres unmarked) [Example 248]	=	5890
Clc1cc(Cl)c2[nH]cc(C3CNC3)c2c1 [Example 266, 3-(azetidin-3-yl)-5,7-dichloro-1H-indole]	=	244
Cc1ccnc2c(C3=CCCN(C)C3)c[nH]c12 [Example 137]	=	531
Cc1c(F)ccc2c(C3=CCCN(C)C3)c[nH]c12 [Example 127]	=	121
Cc1cccc2c(C34CNCCC3C4)n[nH]c12 (centres unmarked) [Example 193]	>	10000
Fc1ccc2c(C34CNCC3C4)c[nH]c2c1Cl (centres unmarked) [Example 280]	=	63.8
FC1(F)C2CCNCC21c1n[nH]c2c(Cl)cccc12 (centres unmarked) [Example 188]	=	2100
CCCN1CCC=C(c2c[nH]c3c(C)cccc23)C1 [Example 155]	=	539

###

- target under test: UniProt:P28223
- test: biochemical
- Assay type: binding
- Parameters: expressed in transfected cells; crude membranes
- condition notes: 5HT2A Ki (nM), secondary binding assay, Cheng-Prusoff

molecule	units symbol	value operator	Ki
CCCN1CCC=C(c2n[nH]c3c(Cl)ccc(F)c23)C1 [Example 177]	nM	=	1830
Cc1cccc2c(C34CCNCC3C4)n[nH]c12 (centres unmarked) [Example 226]	nM	=	4630
CCCc1cccc2c(C3=CCCN(CC)C3)c[nH]c12 [Example 245]	nM	=	600
c1cc(-c2cncnc2)c2[nH]nc(-c3cncnc3)c2c1 [Example 215, 3,7-di(pyrimidin-5-yl)-1H-indazole]	nM	=	3280
CCCN1CCC=C(c2n[nH]c3c(Cl)cc(F)cc23)C1 [Example 173]	nM	=	839
CCCN1CCC=C(c2c[nH]c3c(C)c(F)ccc23)C1 [Example 162]	nM	=	1140
Clc1cccc2c(-c3cncnc3)n[nH]c12 [Example 216, 7-chloro-3-(pyrimidin-5-yl)-1H-indazole]	nM	=	4390
CN1CC=C(c2n[nH]c3c(Cl)cccc23)C1 [Example 207]	nM	=	203
Fc1cccc2c(C3CNC3)c[nH]c12 [Example 259, 3-(azetidin-3-yl)-7-fluoro-1H-indole]	nM	=	168
Cc1cccc2c(C3CN4CCC3CC4)c[nH]c12 (centres unmarked) [Example 253, 3-(7-methyl-1H-indol-3-yl)quinuclidine]	nM	>	10000
CCCN1CC=C(c2n[nH]c3c(Cl)cccc23)CC1 [Example 242]	nM	=	330
CN1CCOC(c2c[nH]c3c(Cl)cccc23)C1 (centres unmarked) [Example 246]	nM	=	2140
CCCN1CCC=C(c2n[nH]c3cccc(C#N)c23)C1 [Example 175]	nM	=	8250
Clc1cccc2c(C3=CCOCC3)n[nH]c12 [Example 220]	nM	>	10000
CCCN1CC=C(c2c[nH]c3c(Cl)cccc23)CC1 [Example 243]	nM	=	27.2
Clc1cc(Br)cc2c(C3CNC3)c[nH]c12 [Example 267]	nM	=	175
NC1CCC=C(c2n[nH]c3c(Cl)cccc23)C1 (centres unmarked) [Example 169]	nM	>	10000
CN(C)C1CCC=C(c2n[nH]c3c(Cl)cccc23)C1 (centres unmarked) [Example 170]	nM	>	10000
Fc1cccc2c(C34CNCCC3C4)n[nH]c12 (centres unmarked) [Example 194]	nM	=	2480
CN1CCC(c2n[nH]c3c(Cl)cccc23)C1 (centres unmarked) [Example 222]	nM	=	6980
CN1CCC2CC2(c2n[nH]c3c(Cl)cc(F)cc23)C1 (centres unmarked) [Example 198]	nM	=	1450
FCCCN1CCC=C(c2n[nH]c3c(Cl)cccc23)C1 [Example 165]	nM	=	342
FC1(F)CC(N2CCC=C(c3n[nH]c4c(Cl)cccc34)C2)C1 [Example 179]	nM	=	8620
CCCc1cccc2c(C3=CCCN(C)C3)c[nH]c12 [Example 244]	nM	=	1550
Clc1cccc2c(C3CNC3)c[nH]c12 [Example 255, 3-(azetidin-3-yl)-7-chloro-1H-indole]	nM	=	159
Cc1cccc2c(C3CNC3)c[nH]c12 [Example 258, 3-(azetidin-3-yl)-7-methyl-1H-indole]	nM	=	674
